target: T1, human CD28, endogenously expressed on Jurkat/IL2 reporter cells (human, UniProt P10747 19-220); assay: flow cytometry, Jurkat/IL2 reporter cells (endogenous CD28), 33.3 nM Fc fusion, PE anti-human Fc
T1 construct: This is the endogenous CD28 of Jurkat cells
measured-metric: MFI at 33.3 nM (MFI)

| binder | MFI at 33.3 nM / MFI |
| --- | --- |
| variant CD80 IgV-Fc Q33L/E35D/M47L/A71G/F92S (Fc fusion, not shown: a dimerising Fc or GST) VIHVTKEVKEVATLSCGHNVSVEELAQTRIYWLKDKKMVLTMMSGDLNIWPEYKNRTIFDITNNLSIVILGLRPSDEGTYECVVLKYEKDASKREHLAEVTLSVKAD | 366 |
| variant CD80 IgV-Fc V22A/R29H/E35D/D46E/M47I (Fc fusion, not shown: a dimerising Fc or GST) VIHVTKEVKEVATLSCGHNVSAEELAQTHIYWQKDKKMVLTMMSGEINIWPEYKNRTIFDITNNLSIVILALRPSDEGTYECVVLKYEKDAFKREHLAEVTLSVKAD | 323 |
| variant CD80 IgV-Fc H18Y/E35D/V68M/L97Q (Fc fusion, not shown: a dimerising Fc or GST) VIHVTKEVKEVATLSCGYNVSVEELAQTRIYWQKDKKMVLTMMSGDMNIWPEYKNRTIFDITNNLSIMILALRPSDEGTYECVVLKYEKDAFKREHQAEVTLSVKAD | 299 |
| variant CD80 IgV-Fc E35D/M47L/A71G/L97Q (Fc fusion, not shown: a dimerising Fc or GST) VIHVTKEVKEVATLSCGHNVSVEELAQTRIYWQKDKKMVLTMMSGDLNIWPEYKNRTIFDITNNLSIVILGLRPSDEGTYECVVLKYEKDAFKREHQAEVTLSVKAD | 300 |
| variant CD80 IgV-Fc Q33L/E35D/M43I/L85Q/R94W (Fc fusion, not shown: a dimerising Fc or GST) VIHVTKEVKEVATLSCGHNVSVEELAQTRIYWLKDKKMVLTMISGDMNIWPEYKNRTIFDITNNLSIVILALRPSDEGTYECVVQKYEKDAFKWEHLAEVTLSVKAD | 272 |
| variant CD80 IgV-Fc Q33L/E35D/N48K/L85Q/L97Q (Fc fusion, not shown: a dimerising Fc or GST) VIHVTKEVKEVATLSCGHNVSVEELAQTRIYWLKDKKMVLTMMSGDMKIWPEYKNRTIFDITNNLSIVILALRPSDEGTYECVVQKYEKDAFKREHQAEVTLSVKAD | 279 |

(1) variant CD80 IgV-Fc E35D/M47V/A71G/L85M/L97Q (Fc fusion, not shown: a dimerising Fc or GST) VIHVTKEVKEVATLSCGHNVSVEELAQTRIYWQKDKKMVLTMMSGDVNIWPEYKNRTIFDITNNLSIVILGLRPSDEGTYECVVMKYEKDAFKREHQAEVTLSVKAD
(2) variant CD80 IgV-Fc E35D/D46V/M47I/A71G/F92V (Fc fusion, not shown: a dimerising Fc or GST) VIHVTKEVKEVATLSCGHNVSVEELAQTRIYWQKDKKMVLTMMSGVINIWPEYKNRTIFDITNNLSIVILGLRPSDEGTYECVVLKYEKDAVKREHLAEVTLSVKAD
Larger number for MFI at 33.3 nM: 1 , or 2 ? Returns: label corresponding to the selected item.
2
